Provide the reported Ki of each item.
target: T1, Mushroom tyrosinase (mushroom, UniProt C7FF04 1-392); test: enzyme kinetics on mushroom tyrosinase, Lineweaver-Burk / nonlinear regression, differs from Table 4
T1 construct: Bought enzyme preparation; also called monophenol monooxygenase (EC 1.14.18.1)
T1 sequence (C7FF04 1-392): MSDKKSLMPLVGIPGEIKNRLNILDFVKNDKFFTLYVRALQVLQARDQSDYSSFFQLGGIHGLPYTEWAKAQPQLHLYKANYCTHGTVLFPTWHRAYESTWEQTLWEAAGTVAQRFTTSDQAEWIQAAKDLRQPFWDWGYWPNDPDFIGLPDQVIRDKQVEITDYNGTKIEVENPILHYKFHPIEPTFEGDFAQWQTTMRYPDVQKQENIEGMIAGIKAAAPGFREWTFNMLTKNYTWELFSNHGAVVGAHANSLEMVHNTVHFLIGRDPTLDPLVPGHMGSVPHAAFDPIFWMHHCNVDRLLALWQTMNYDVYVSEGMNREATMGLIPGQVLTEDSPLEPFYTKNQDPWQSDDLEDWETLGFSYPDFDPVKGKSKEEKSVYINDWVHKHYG
Write it as a number; the unit µM goes unstated.

In plain terms, RRYWYWRR (Synthetic octapeptide) [P18 peptide] has a documented Ki of 179

In plain terms, RRRYWYYR (Synthetic octapeptide) [P17 peptide] has a documented Ki of 190

In plain terms, RRWWRRYY (Synthetic octapeptide) [P16 peptide] has a documented Ki of 167
